Conditions: in ethyl acetate, 293.15 K
measurement.kind: solubility (mole fraction)

[[record]]
smiles_entry = "Cc1c(Cl)cccc1Nc1ccccc1C(=O)O"
assay_result = 0.0102


* * *

Conditions: in acetonitrile, 318.15 K
measurement.kind: solubility (mole fraction)

[[record]]
smiles_entry = "Cc1c(Cl)cccc1Nc1ccccc1C(=O)O"
assay_result = 0.00177


* * *

Conditions: in DMF, 323.15 K
measurement.kind: solubility (mole fraction)

[[record]]
smiles_entry = "Cc1c(Cl)cccc1Nc1ccccc1C(=O)O"
assay_result = 0.0454


* * *

Conditions: in n-hexanol, 323.15 K
measurement.kind: solubility (mole fraction)

[[record]]
smiles_entry = "Cc1c(Cl)cccc1Nc1ccccc1C(=O)O"
assay_result = 0.0251


* * *

Conditions: in cyclohexane, 323.15 K
measurement.kind: solubility (mole fraction)

[[record]]
smiles_entry = "Cc1c(Cl)cccc1Nc1ccccc1C(=O)O"
measurement_kind = "solubility (mole fraction)"
assay_result = 0.000391


* * *

Conditions: in n-heptanol, 288.15 K
measurement.kind: solubility (mole fraction)

[[record]]
smiles_entry = "Cc1c(Cl)cccc1Nc1ccccc1C(=O)O"
assay_result = 0.00726


* * *

Conditions: in DMF, 318.15 K
measurement.kind: solubility (mole fraction)

[[record]]
smiles_entry = "Cc1c(Cl)cccc1Nc1ccccc1C(=O)O"
measurement_kind = "solubility (mole fraction)"
assay_result = 0.0374


* * *

Conditions: in n-hexanol, 293.15 K
measurement.kind: solubility (mole fraction)

[[record]]
smiles_entry = "Cc1c(Cl)cccc1Nc1ccccc1C(=O)O"
measurement_kind = "solubility (mole fraction)"
assay_result = 0.00758


* * *

Conditions: in acetonitrile, 298.15 K
measurement.kind: solubility (mole fraction)

[[record]]
smiles_entry = "Cc1c(Cl)cccc1Nc1ccccc1C(=O)O"
measurement_kind = "solubility (mole fraction)"
assay_result = 0.000618


* * *

Settings: in acetonitrile, 328.15 K
measurement.kind: solubility (mole fraction)

[[record]]
smiles_entry = "Cc1c(Cl)cccc1Nc1ccccc1C(=O)O"
assay_result = 0.00282


* * *

Details: in DMSO, 308.15 K
measurement.kind: solubility (mole fraction)

[[record]]
smiles_entry = "Cc1c(Cl)cccc1Nc1ccccc1C(=O)O"
assay_result = 0.0288


* * *

Settings: in DMSO, 293.15 K
measurement.kind: solubility (mole fraction)

[[record]]
smiles_entry = "Cc1c(Cl)cccc1Nc1ccccc1C(=O)O"
assay_result = 0.0144


* * *

Details: in n-heptanol, 293.15 K
measurement.kind: solubility (mole fraction)

[[record]]
smiles_entry = "Cc1c(Cl)cccc1Nc1ccccc1C(=O)O"
assay_result = 0.00924


* * *

Conditions: in 1,4-dioxane, 298.15 K
measurement.kind: solubility (mole fraction)

[[record]]
smiles_entry = "Cc1c(Cl)cccc1Nc1ccccc1C(=O)O"
measurement_kind = "solubility (mole fraction)"
assay_result = 0.0356


* * *

Conditions: in DMF, 313.15 K
measurement.kind: solubility (mole fraction)

[[record]]
smiles_entry = "Cc1c(Cl)cccc1Nc1ccccc1C(=O)O"
assay_result = 0.0303


* * *

Settings: in n-heptanol, 318.15 K
measurement.kind: solubility (mole fraction)

[[record]]
smiles_entry = "Cc1c(Cl)cccc1Nc1ccccc1C(=O)O"
assay_result = 0.0257


* * *

Settings: in n-pentanol, 293.15 K
measurement.kind: solubility (mole fraction)

[[record]]
smiles_entry = "Cc1c(Cl)cccc1Nc1ccccc1C(=O)O"
assay_result = 0.00575


* * *

Details: in ethyl acetate, 288.15 K
measurement.kind: solubility (mole fraction)

[[record]]
smiles_entry = "Cc1c(Cl)cccc1Nc1ccccc1C(=O)O"
assay_result = 0.00799

